# credit: patent US20220226425A1

# study.target: MC-5R (Homo sapiens, UniProt P33032)
# Sequence (P33032 whole entry): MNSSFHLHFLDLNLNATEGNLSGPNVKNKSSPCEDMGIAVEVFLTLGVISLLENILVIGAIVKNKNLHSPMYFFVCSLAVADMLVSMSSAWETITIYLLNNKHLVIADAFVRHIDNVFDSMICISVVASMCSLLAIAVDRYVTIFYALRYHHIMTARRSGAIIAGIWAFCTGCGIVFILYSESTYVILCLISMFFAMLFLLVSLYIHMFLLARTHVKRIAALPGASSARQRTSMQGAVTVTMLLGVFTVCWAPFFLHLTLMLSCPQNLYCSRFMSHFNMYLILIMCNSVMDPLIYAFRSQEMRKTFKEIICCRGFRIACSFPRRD
# test.details: cAMP accumulation via β-galactosidase (β-Gal) reporter system (cAMP Hunter GPCR assay)
# Assay type: cell-based
# assay.setup: ratio of EC-50 values, MC-5R versus MC-4R
Where a SMILES comes first, the peptide text is derived from it. Bridges are numbered along the chain shown (N, C = ends). [ ]: non-standard residue; d: D form. Pen = CC(C)(S)[C@H](N)C(=O)O; hCys = N[C@@H](CCS)C(=O)O
Below, each entry is listed alongside its reported Selectivity Ratios MC4R/MC5R.

compound: CC(=O)N[C@@H](CCCNC(=N)N)C(=O)N[C@H]1CCSSC(C)(C)[C@@H](C(N)=O)NC(=O)[C@H](Cc2c[nH]c3ccccc23)NC(=O)[C@H](CCCNC(=N)N)NC(=O)[C@@H](Cc2ccccc2)NC(=O)[C@H](CC(N)=O)NC1=O [Compound 001554C, Ac-Arg-(hCys-Asn-D-Phe-Arg-Trp-Pen)-NH2] (Ac-R[hCys]N[dF]RW[Pen]-NH2; disulfide 2-7)
Selectivity Ratios MC4R/MC5R: 459.17

compound: CC(=O)N[C@@H](CCCNC(=N)N)C(=O)N[C@H]1CCSSC(C)(C)[C@@H](C(N)=O)NC(=O)[C@H](Cc2c[nH]c3ccccc23)NC(=O)[C@H](CCCNC(=N)N)NC(=O)[C@@H](Cc2ccccc2)NC(=O)[C@H]([C@@H](C)O)NC1=O [Compound 001574C, Ac-Arg-(hCys-Thr-D-Phe-Arg-Trp-Pen)-NH2] (Ac-R[hCys]T[dF]RW[Pen]-NH2; disulfide 2-7)
Selectivity Ratios MC4R/MC5R: 1846.64

compound: CC(=O)N[C@@H](CCCNC(=N)N)C(=O)N[C@H]1CCC(=O)NC[C@@H](C(N)=O)NC(=O)[C@H](Cc2c[nH]c3ccccc23)NC(=O)[C@H](CCCNC(=N)N)NC(=O)[C@@H](Cc2ccccc2)NC(=O)[C@H](CCC(N)=O)NC1=O [Compound 001576C, Ac-Arg-(Glu-Gln-D-Phe-Arg-Trp-Dpr)-NH2]
Selectivity Ratios MC4R/MC5R: 101.41

---

Below, each entry is listed alongside its reported Selectivity Ratios MC4R/MC1R.
# study.target: MC-1R (Homo sapiens)
# Sequence (Q01726 whole entry): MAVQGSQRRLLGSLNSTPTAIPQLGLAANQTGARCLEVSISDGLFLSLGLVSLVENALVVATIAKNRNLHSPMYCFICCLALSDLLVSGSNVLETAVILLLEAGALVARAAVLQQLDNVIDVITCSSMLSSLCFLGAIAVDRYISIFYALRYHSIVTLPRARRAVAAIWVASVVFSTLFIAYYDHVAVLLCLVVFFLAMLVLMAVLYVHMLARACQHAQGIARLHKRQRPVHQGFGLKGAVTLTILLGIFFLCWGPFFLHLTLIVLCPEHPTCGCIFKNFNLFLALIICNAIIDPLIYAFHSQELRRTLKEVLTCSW
# test.details: cAMP accumulation via β-galactosidase (β-Gal) reporter system (cAMP Hunter GPCR assay)
# Format: cell-based
# assay.setup: ratio of EC-50 values, MC-1R versus MC-4R
# Procedure: cAMP Accumulation Measurement via a β-Galactosidase (β-Gal) Reporter System A chemiluminescence readout system that uses an enzyme fragment complementation (EFC) system with β-galactosidase (β-Gal) as the functional reporter system was used. […] After further incubation for 120 min at room temperature, the chemiluminescence is measured by a plate reader (Envision).
Where a SMILES comes first, the peptide text is derived from it. Bridges are numbered along the chain shown (N, C = ends). [ ]: non-standard residue; d: D form. Pen = CC(C)(S)[C@H](N)C(=O)O; hCys = N[C@@H](CCS)C(=O)O

compound: CC(=O)N[C@@H](CCCNC(=N)N)C(=O)N[C@H]1CCC(=O)NC[C@@H](C(N)=O)NC(=O)[C@H](Cc2c[nH]c3ccccc23)NC(=O)[C@H](CCCNC(=N)N)NC(=O)[C@@H](Cc2ccccc2)NC(=O)[C@H](CCC(N)=O)NC1=O [Compound 001576C, Ac-Arg-(Glu-Gln-D-Phe-Arg-Trp-Dpr)-NH2]
Selectivity Ratios MC4R/MC1R: 35.57
//
compound: CC(=O)N[C@@H](CCCNC(=N)N)C(=O)N[C@H]1CCSSC(C)(C)[C@@H](C(N)=O)NC(=O)[C@H](Cc2c[nH]c3ccccc23)NC(=O)[C@H](CCCNC(=N)N)NC(=O)[C@@H](Cc2ccccc2)NC(=O)[C@H]([C@@H](C)O)NC1=O [Compound 001574C, Ac-Arg-(hCys-Thr-D-Phe-Arg-Trp-Pen)-NH2] (Ac-R[hCys]T[dF]RW[Pen]-NH2; disulfide 2-7)
Selectivity Ratios MC4R/MC1R: 465.77
//
compound: CC(=O)N[C@@H](CCCNC(=N)N)C(=O)N[C@H]1CCSSC(C)(C)[C@@H](C(N)=O)NC(=O)[C@H](Cc2c[nH]c3ccccc23)NC(=O)[C@H](CCCNC(=N)N)NC(=O)[C@@H](Cc2ccccc2)NC(=O)[C@H](CO)NC1=O [Compound 001556C, Ac-Arg-(hCys-Ser-D-Phe-Arg-Trp-Pen)-NH2] (Ac-R[hCys]S[dF]RW[Pen]-NH2; disulfide 2-7)
Selectivity Ratios MC4R/MC1R: 123.06
//
compound: CC(=O)N[C@@H](CCCNC(=N)N)C(=O)N[C@H]1CCSSC(C)(C)[C@@H](C(N)=O)NC(=O)[C@H](Cc2c[nH]c3ccccc23)NC(=O)[C@H](CCCNC(=N)N)NC(=O)[C@@H](Cc2ccccc2)NC(=O)[C@H](CC(N)=O)NC1=O [Compound 001554C, Ac-Arg-(hCys-Asn-D-Phe-Arg-Trp-Pen)-NH2] (Ac-R[hCys]N[dF]RW[Pen]-NH2; disulfide 2-7)
Selectivity Ratios MC4R/MC1R: 146.75
